# Tested on: Saccharomyces cerevisiae lifespan shortening, growth inhibition
# Assay info: yeast lifespan shortening compounds, dose response (AID 849);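 note: yeast growth read as optical density after two days at 30 degrees C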
Active and inactive are the calls of the source. The rule behind the calls is not given here.
Kindly state IC50 for each of the entries shown.

Completed entries (count: 8):
Cc1ccc(C)c(/C=C/C(=O)c2ccccc(=O)c2O)c1; 6.4 µM
C=CCc1c(C)c(C#N)c2nc3ccccc3n2c1NCCN(C)C; 44.5 µM
O/N=C/c1ccc(OCc2ccccc2)c(Br)c1; > 100 µM (inactive)
Nc1[nH]c(=O)ncc1F; 11.8 µM
N/C(Cc1ccccc1)=N\OC(=O)c1cccc2ccccc12; 10.8 µM
Cc1ccc(/C=C/C(=O)c2ccccc(=O)c2O)cc1C; 5.31 µM
c1ccc(Cc2nnc3sc(-c4ccco4)nn23)cc1; > 100 µM (inactive)
CCCS(=O)(=O)c1nnnn1-c1cccc(OC)c1; 3.4 µM

Consider the following items and state reported IC50 for each.
1. O=C1c2ccccc2C(=O)N1Cc1ccco1
2. CC(=O)c1c(C)oc2c1C(=O)c1ccccc1C2=O
3. C/C(=N\Nc1ccc(Cl)cc1)c1ccccn1
4. Clc1ccc(COC(Cn2ccnc2)c2ccc(Cl)cc2Cl)cc1 (configuration not stated)
5. CCOCC(=O)Nc1nc2c(s1)C(=O)CC(C)(C)C2
6. CCN1CCN(C(=O)C(NS(=O)(=O)c2ccc3nc(C)sc3c2)C(C)C)CC1 (configuration not stated)
7. CNC(=S)N/N=C(\C)c1ccc(N2CCOCC2)cc1

> 100 µM (inactive)
> 100 µM (inactive)
43.5 µM
0.809 µM
> 100 µM (inactive)
> 100 µM (inactive)
> 100 µM (inactive)

Consider the following items and state reported IC50 for each.
1. CCN1/C(=C/C=C/C=C/c2sc3ccccc3[n+]2CC)Sc2ccccc21
2. O=C(Cc1cccs1)NNC(=S)NC(=O)c1ccccc1
3. COc1ccccc1NC(=O)Cc1noc(CSc2cccc[n+]2[O-])n1

1: 21.3 µM; 2: > 100 µM (inactive); 3: 23.2 µM

Consider the following items and state reported IC50 for each.
1. Cn1c2ccccc2c(=O)n2c(=O)c3ccccc3cc12
2. Cc1cccc(Cn2ncc(Cl)c(Cl)c2=O)c1
3. O=C(O)Cc1ccc2sc(-c3ccccc3)nc2c1

1. 52.5 µM
2. 37.4 µM
3. > 100 µM (inactive)

Note IC50 for the molecule shown: O=C(CC(=O)c1ccccc1O)c1ccc(F)cc1
> 100 µM (inactive)

* * *

# System: Saccharomyces cerevisiae lifespan shortening, growth inhibition
# Assay info: yeast lifespan shortening compounds, dose response (AID 849);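 note: yeast growth read as optical density after two days at 30 degrees C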
Active and inactive are the calls of the source. How the calls were made is not given here.
A correct response names exactly one class from active, inactive

Examples from the recorded data:
Cc1ccc(N/N=C(\C#N)C(N)=S)c(C)c1; inactive
CC(Nc1ccc(Br)cn1)c1cc(Cl)ccc1O (stereo not drawn); inactive
Oc1c(CN2CCc3ccccc3C2)cc(Cl)c2cccnc12; active
Cc1ccc2c(c1)-c1nc3ccccc3cc1C2=NC1CCCCC1; active

Outcome logged for CN(c1ccc(O)cc1)c1nc(-c2ccccc2)cs1 in this assay:
inactive

Outcome logged for CCC(C)NC(=O)C1CCN(S(=O)(=O)c2cccc3cccnc23)CC1 (stereo not drawn) in this assay:
inactive

Outcome logged for CCCCCCN1N=C(C)C(C(=O)c2ccc(Cl)cc2)C1=O (stereo not drawn) in this assay:
active

* * *

# Test system: Saccharomyces cerevisiae lifespan shortening, growth inhibition
# Assay info: yeast lifespan shortening compounds, dose response (AID 849);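 note: yeast growth read as optical density after two days at 30 degrees C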
Active and inactive are the calls of the source. No rule for the calls is given here.
A correct response names exactly one class from active, inactive

Examples from the recorded data:
CCCCCCCCCCCCCCCC[n+]1cccc(C(=O)N(CC)CC)c1; active
O=C(Nc1ccc(Cl)cc1)ON=C1CCCC1; active
CC1CCc2c(sc3nc(CN4CCOCC4)nc(Sc4ccccc4)c23)C1 (stereo not given); inactive

Outcome logged for CC1CCN(c2nc(/C=C/c3ccccc3)nc3ccccc23)CC1 in this assay:
active

Outcome logged for Oc1c(CN2CCCCC2)cc(Br)c2cccnc12 in this assay:
active

* * *

# System: Saccharomyces cerevisiae lifespan shortening, growth inhibition
# Assay info: yeast lifespan shortening compounds, dose response (AID 849);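 note: yeast growth read as optical density after two days at 30 degrees C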
Activity calls are given as the source filed them. How the calls were made is not given here.
A correct response names exactly one class from active, inactive

Examples from the recorded data:
COc1ccc(C(=O)NC(=S)NNC(=O)c2cnccn2)cc1OC; active
Cc1cc(C)c2c(N=NN3CCOCC3)[nH]nc2n1; active
CCOc1cc(/C=N/Nc2ccccc2Cl)ccc1OCC(=O)O; active
CCCCOC(=O)Sc1nc2ccccc2o1; active
c1ccc(-c2ccc(-c3ccccn3)nn2)nc1; active
O=[N+]([O-])c1ccccc1-c1cc(-c2cc(Cl)ccc2O)n[nH]1; inactive

Outcome logged for Cc1ccc(C(NC(=O)C(C)C)c2cc([N+](=O)[O-])c3cccnc3c2O)cc1 (stereo unspecified) in this assay:
active

Outcome logged for CC1=CC(=O)C=C(C)C1=NOS(=O)(=O)c1ccccc1 in this assay:
inactive

Outcome logged for Cc1ccc(CNC(=O)c2ccc(Cn3nc(C)c(Cl)c3C)o2)cc1 in this assay:
active

Outcome logged for Fc1ccc(Br)cc1C1C=C(c2cccnc2)Nc2ncnn21 (stereo unspecified) in this assay:
inactive

Outcome logged for Oc1c(I)cc(I)c2cccnc12 in this assay:
active

* * *

# Tested on: Saccharomyces cerevisiae lifespan shortening, growth inhibition
# Assay info: yeast lifespan shortening compounds, dose response (AID 849);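 note: yeast growth read as optical density after two days at 30 degrees C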
The source made the active and inactive calls. The rule behind the calls is not given here.
A correct response names exactly one class from Yes = active, No = inactive

CC(C)c1ccc2c(c1)C1(NN=C(c3ccccc3)S1)C(=O)N2 (configuration not stated); Yes
CC1CCCC2(C1)NC(=S)c1c(sc3c1CCCC3)N2 (configuration not stated); No

Outcome logged for OC(Cn1cncn1)(c1ccccc1)c1ccccc1 in this assay:
Yes

Outcome logged for Cc1nc(N/N=C/c2ccccn2)sc1C in this assay:
Yes

Outcome logged for COc1ccc(-c2cc(C(=O)N3CCN(c4ncccn4)CC3)c3ccccc3n2)c(OC)c1 in this assay:
Yes

Outcome logged for CSC1=NSC2=NC(=O)/C(=C\c3coc4ccccc4c3=O)C(=N)N12 in this assay:
No

Outcome logged for O=C(O)c1ccccc1C(=O)NNc1ccc(Cl)cc1 in this assay:
Yes

* * *

# Tested on: Saccharomyces cerevisiae lifespan shortening, growth inhibition
# Assay info: yeast lifespan shortening compounds, dose response (AID 849);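 note: yeast growth read as optical density after two days at 30 degrees C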
Calls of active or inactive are those of the source. How the calls were made is not given here.
A correct response names exactly one class from 1 (yes) (active), 0 (no) (inactive)

Cc1ccc(O)c(-c2cc(-c3cccc(F)c3)n[nH]2)c1; 1 (yes)
C=C(C)COc1ccc(-c2[nH]ncc2Oc2ccccc2OC)c(O)c1; 0 (no)
O=C(Oc1c(Cl)cc(Cl)c2cccnc12)c1cccs1; 1 (yes)
O=c1cnn([C@@H]2O[C@H](CO)[C@@H](O)[C@H]2O)c(=O)[nH]1; 1 (yes)
Oc1ccc(/C=N/N=C(c2ccccc2)c2ccccc2)c(O)c1O; 1 (yes)
COc1ccc2c(c1)S/C(=C\C(=O)c1ccncc1)N2C; 1 (yes)

Outcome logged for Oc1c(I)cc(Cl)c2cccnc12 in this assay:
1 (yes)

Outcome logged for CCn1c2ccccc2c2cc(Nc3cc(C)nc4ncnn34)ccc21 in this assay:
0 (no)

* * *

# System: Saccharomyces cerevisiae lifespan shortening, growth inhibition
# Assay info: yeast lifespan shortening compounds, dose response (AID 849);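 note: yeast growth read as optical density after two days at 30 degrees C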
The source made the active and inactive calls. The rule behind the calls is not given here.
A correct response names exactly one class from active, inactive

O=C(CSC1=NS(=O)(=O)c2ccccc21)Nc1ccccc1; inactive
CCCCCCCCCCCCCCCC[n+]1cccc2ccccc21; active
Cc1conc1NC(c1cccs1)c1ccc2cccnc2c1O (configuration not stated); active
CCCCCCOC(=O)Sc1nc2ccccc2o1; active
Oc1c(Br)cc(Br)cc1Oc1ccc(Br)cc1Br; inactive

Outcome logged for CCc1cccc(C)c1NC(=S)NCCc1c(C)[nH]c2ccc(C)cc12 in this assay:
active

Outcome logged for O=c1c(-c2ccc(Cl)cc2)[n+]([O-])c2ccccc2n1O in this assay:
active

* * *

# System: Saccharomyces cerevisiae lifespan shortening, growth inhibition
# Assay info: yeast lifespan shortening compounds, dose response (AID 849);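 note: yeast growth read as optical density after two days at 30 degrees C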
Calls of active or inactive are those of the source. How the calls were made is not given here.
A correct response names exactly one class from T (active), F (inactive)

Examples from the recorded data:
CC(=O)NC(=S)c1c(N)n(Cc2ccccc2)c(=O)n(C)c1=O; F
COc1ccc2nc(NC(=S)N(C)C)sc2c1; F
COc1cc(Br)cc(/C=N/c2ncn[nH]2)c1O; T
CCS(=O)(=O)n1nc(-c2ccc(Cl)cc2)nc1SCc1ccccc1; F
N=c1n(CCN2CCOCC2)c2ccccc2n1CC(=O)c1ccc(Cl)c(Cl)c1; F

Outcome logged for C=CCn1c2ccccc2c2nnc(SCN3C(=O)c4ccccc4C3=O)nc21 in this assay:
F

Outcome logged for CCC1C(=O)N=C(SCC(=O)Nc2ccccc2)NC1=O (centres undefined) in this assay:
F

Outcome logged for O=C(NC1CCCCC1)Sc1ccc(Cl)cc1 in this assay:
F

Outcome logged for COc1ccc(CN2CN(C(C)C)CSC2=S)cc1 in this assay:
T

Outcome logged for COc1cccc(C(=O)O/N=C(\N)Cc2ccc(Cl)cc2)c1 in this assay:
T
